Collected literature values of Ki measured for Carbonic anhydrase 7 (Homo sapiens, UniProt P43166).
Sequence (P43166 whole entry): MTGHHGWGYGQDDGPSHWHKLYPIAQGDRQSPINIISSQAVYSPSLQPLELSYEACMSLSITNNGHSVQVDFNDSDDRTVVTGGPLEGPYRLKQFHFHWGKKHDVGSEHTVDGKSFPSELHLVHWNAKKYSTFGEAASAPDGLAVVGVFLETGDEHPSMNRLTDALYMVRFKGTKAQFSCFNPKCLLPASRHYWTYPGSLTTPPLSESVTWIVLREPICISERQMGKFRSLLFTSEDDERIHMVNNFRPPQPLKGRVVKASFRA

Example entries and their recorded answers appear below.
Using Carbonic anhydrase 7 (Homo sapiens, UniProt P43166) as the test system, report measured Ki of CN(C)CCCNC(=S)NC(=O)c1cc2ccccc2oc1=O .
> 10 µM

Using Carbonic anhydrase 7 (Homo sapiens, UniProt P43166) as the test system, report measured Ki of O=C(NC(=S)N1CCOCC1)c1cc2ccccc2oc1=O .
> 10 µM

Using Carbonic anhydrase 7 (Homo sapiens, UniProt P43166) as the test system, report measured Ki of O=C(NC(=S)NN1CCOCC1)c1cc2ccccc2oc1=O .
> 10 µM

Further cases:
Using Carbonic anhydrase 7 (Homo sapiens, UniProt P43166) as the test system, report measured Ki of O=C(NC(=S)NN1CCCCC1)c1cc2ccccc2oc1=O .
> 10 µM

Using Carbonic anhydrase 7 (Homo sapiens, UniProt P43166) as the test system, report measured Ki of CC(C)N(C(=S)NC(=O)c1cc2ccccc2oc1=O)C(C)C .
> 10 µM

Using Carbonic anhydrase 7 (Homo sapiens, UniProt P43166) as the test system, report measured Ki of Oc1ccc(/C=C/c2ccc(Cl)cc2Cl)cc1Cl .
4.2 µM

Using Carbonic anhydrase 7 (Homo sapiens, UniProt P43166) as the test system, report measured Ki of NS(=O)(=O)CCCn1cc(COc2ccccc2)nn1 .
2.7 µM

Using Carbonic anhydrase 7 (Homo sapiens, UniProt P43166) as the test system, report measured Ki of NS(=O)(=O)c1ccc(N2CC[C@@H](NC(=S)Nc3ccccc3)C2)nc1 .
0.0085 µM

Using Carbonic anhydrase 7 (Homo sapiens, UniProt P43166) as the test system, report measured Ki of Oc1ccc(/C=C/c2ccccc2)cc1Cl .
> 100 µM

Using Carbonic anhydrase 7 (Homo sapiens, UniProt P43166) as the test system, report measured Ki of COc1ccc(OCc2cn(CCCS(N)(=O)=O)nn2)cc1 .
2.71 µM
